Each entry below carries its reported melting point.

>  <COMPOUND>
COc1cc(C=O)ccc1OCC(=O)N1CCCC1

>  <MEASUREMENT LABEL>
melting point

>  <MEASUREMENT>
117 to 119 °C

$$$$
>  <COMPOUND>
COc1cc(NC(=O)C2CCCCC2)c(C(=O)O)cc1OC

>  <MEASUREMENT LABEL>
melting point

>  <MEASUREMENT>
155 to 157 °C

$$$$
>  <COMPOUND>
N#CCn1cc(N)cn1

>  <MEASUREMENT LABEL>
melting point

>  <MEASUREMENT>
71 to 73 °C

$$$$

In: Quick one: melting point of `C#CCNC(=O)c1ccccc1N` ?
Out: 96 to 98 °C

In: Requested read-out: melting point. Entry: `CC(C)(C)Cc1nc(-c2ccc(C(=O)O)cc2)no1`
Out: 227 to 229 °C

In: Look at this compound and give its reported melting point. CCOC(=O)C1SC(=N)NC1=O (stereo not drawn)
Out: 175 to 177 °C

In: Query (compound): `COc1ccc2[nH]nc(N)c2c1` ; field requested: melting point
Out: 159 to 161 °C

In: Requested field: melting point. Item: `O=C(CCSc1ccccc1)c1ccc(F)cc1`
Out: 111 to 113 °C

In: If you can, please state the reported melting point value of `O=C(O)Cc1ccc(NC(=O)c2ccc(Br)cc2)cc1` .
Out: 269 to 271 °C

In: Give its melting point value. Item: COc1ccc(C(CN)NC(=O)OC(C)(C)C)cc1 (stereo not drawn)
Out: 90 to 92 °C

In: I am curious: what melting point value has been reported for `O=C(O)CCNC(=O)C12CC3CC(CC(C3)C1)C2` ?
Out: 185 to 187 °C

In: Record request: melting point value, item `Cc1ccc(CNC(=O)CCl)cc1`
Out: 117 to 119 °C

In: Give its melting point value. Item: `Nc1ccc(C(=O)N2CCc3ccccc32)cc1`
Out: 185 to 187 °C

In: Item `CC(=O)c1ccc(-c2ccccc2)s1` has what recorded melting point?
Out: 115 to 117 °C

In: # melting point lookup, item `C=CCn1c(C)nnc1S`
Out: 264 to 266 °C

In: Which melting point value belongs to `O=c1[nH]nc2n1CCNC2` ?
Out: 179 to 181 °C

In: What value of melting point has been reported for the following compound? `O=C(O)CCN1C(=O)Cc2ccccc2C1=O`
Out: 148 to 150 °C

In: Which value of melting point has been reported for `O=c1c(Cl)c(Cl)cnn1-c1ccc(Cl)cc1Cl` in the records?
Out: 200 to 202 °C

In: Which value of melting point has been reported for `Cc1nnc2ccc(C#N)cn12` in the records?
Out: 201 to 203 °C

In: Tell me the measured melting point of `Nc1cccc(S(=O)(=O)Nc2ccccc2C(=O)O)c1` , please.
Out: 198 to 200 °C
